Data provenance: PubChem BioAssay AID2060892

# Tested on: HOP-62 complex spheroids with HUVEC/MSC, viability
# experiment description: Anticancer human tumor HOP-62 cell line growth inhibition [RAS];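 further: spheroids exposed to agents for seven days before readout; 100% = DMSO vehicle control viability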
# measurement context: second compound 0.0316 µM; first compound 0.316 µM; active compounds read low
# Description: RAS pathway inhibitors in Combinations in Complex Spheroids A high-throughput screen of multi-cell type tumor spheroids was designed to identify active combinations of RAS pathway inhibitors and targeted small molecules. Complex spheroids include a stromal component modeled by human endothelial cells (HUVEC) and fibroblasts modeled by human mesenchymal stem cells (MSCs). […] Compounds. […] If the clinical Cmax for an agent had not been determined, the highest concentration tested was 10 microM. […]
Flag rule - viability, T/C less than 50% flags t; the remaining entries get f.

INSERT INTO results (compound, group_label) VALUES
  ('C[C@@H](NC(=O)c1ncnc(N)c1Cl)c1ncc(C(=O)Nc2cc(C(F)(F)F)c(Cl)cn2)s1 + C=CC(=O)N1CCN(c2nc(OCC3CCCN3C)nc3c(F)c(-c4nc(N)cc(C)c4C(F)(F)F)c(Cl)cc23)C(C)C1', 'f'),
  ('CCN1CCN(Cc2ccc(Nc3ncc(F)c(-c4cc(F)c5nc(C)n(C(C)C)c5c4)n3)nc2)CC1 + C#Cc1c(F)ccc2cc(O)cc(-c3ncc4c(N5CC6CCC(C5)N6)nc(OCC56CCCN5CC(F)C6)nc4c3F)c12', 'f'),
  ('CC(=O)OC12COC1CC(O)C1(C)C(=O)C(O)C3=C(C)C(OC(=O)C(O)C(NC(=O)OC(C)(C)C)c4ccccc4)CC(O)(C(OC(=O)c4ccccc4)C21)C3(C)C (stereo not given) + C#Cc1c(F)ccc2cc(O)cc(-c3ncc4c(N5CC6CCC(C5)N6)nc(OCC56CCCN5CC(F)C6)nc4c3F)c12', 't'),
  ('CC(C)NCC(C(=O)N1CCN(c2ncnc3c2C(C)CC3O)CC1)c1ccc(Cl)cc1 (stereo not given) + C=CC(=O)N1CCN(c2nc(OCC3CCCN3C)nc3c(F)c(-c4nc(N)cc(C)c4C(F)(F)F)c(Cl)cc23)C(C)C1', 'f');

Now look at this one.
Identify whether the compound CCC(CC)c1cc(NC2CCC(N)C2)n2nccc2n1 (stereo not given) + C=CC(=O)N1CCN(c2nc(OCC3CCCN3C)nc3c(F)c(-c4nc(N)cc(C)c4C(F)(F)F)c(Cl)cc23)C(C)C1 records viability, T/C below 50%.
f

* * *

# Tested on: HOP-62 complex spheroids with HUVEC/MSC, viability
# experiment description: Anticancer human tumor HOP-62 cell line growth inhibition [RAS];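 further: spheroids exposed to agents for seven days before readout; 100% = DMSO vehicle control viability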
# measurement context: second compound 1 µM; first compound 1 µM; active compounds read low
Please respond with reported viability, T/C for every item in the list.
Give bare numbers, in %.

INSERT INTO results (molecule, endpoint_unit, observed_result) VALUES
  ('CC(=O)OC12COC1CC(O)C1(C)C(=O)C(O)C3=C(C)C(OC(=O)C(O)C(NC(=O)OC(C)(C)C)c4ccccc4)CC(O)(C(OC(=O)c4ccccc4)C21)C3(C)C (stereo not drawn) + C#Cc1c(F)ccc2cc(O)cc(-c3ncc4c(N5CC6CCC(C5)N6)nc(OCC56CCCN5CC(F)C6)nc4c3F)c12', '%', 11.6),
  ('C[C@@H](NC(=O)c1ncnc(N)c1Cl)c1ncc(C(=O)Nc2cc(C(F)(F)F)c(Cl)cn2)s1 + C#Cc1c(F)ccc2cc(O)cc(-c3ncc4c(N5CC6CCC(C5)N6)nc(OCC56CCCN5CC(F)C6)nc4c3F)c12', '%', 94.1);

Now for a further molecule.
Give me measured viability, T/C, please, for this molecule: CCC(CC)c1cc(NC2CCC(N)C2)n2nccc2n1 (stereo not drawn) + C=CC(=O)N1CCN(c2nc(OCC3CCCN3C)nc3c(F)c(-c4nc(N)cc(C)c4C(F)(F)F)c(Cl)cc23)C(C)C1
73.4
